# study system: DNA dC->dU-editing enzyme APOBEC-3A (Homo sapiens)
# Sequence (P31941 whole entry): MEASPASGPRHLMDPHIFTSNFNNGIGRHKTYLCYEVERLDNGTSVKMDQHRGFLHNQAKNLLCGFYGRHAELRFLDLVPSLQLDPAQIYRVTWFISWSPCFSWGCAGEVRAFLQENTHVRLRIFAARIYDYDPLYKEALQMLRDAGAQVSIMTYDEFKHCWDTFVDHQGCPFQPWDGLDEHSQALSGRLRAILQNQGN
# experimental protocol: Dose Response confirmation of small molecule APOBEC3A DNA Deaminase Inhibitors via a fluorescence-based single-stranded DNA deaminase assay. [Related pubchem assays (depositor defined):AID493011, AID493024]
# Format: functional
Calls of active or inactive are those of the source. No rule for the calls is given here.
measured property: IC50

>  <compound>
C[N+](C)(C)C/C=C1/COCO1

>  <value measured>
1.89 µM (active)

$$$$
>  <compound>
N=C1/C(=C/c2ccco2)C(=O)N=C2SC(CC(=O)N3CCCC3)=NN12

>  <value measured>
18.5 µM (active)

$$$$
>  <compound>
CCCC(=O)Nc1ccc2nc(SCC(=O)Nc3ccc(N4CCOCC4)c(Cl)c3)sc2c1

>  <value measured>
4.33 µM (active)

$$$$
>  <compound>
CC(=O)Nc1ccc(-c2ccccc2)s1

>  <value measured>
5.3 µM (active)

$$$$

For each entry beneath this line, provide reported IC50.
1. CCCC[N+]12CCC(CC1)C(C(O)(c1ccccc1)c1ccccc1)C2 (stereo unspecified)
2. COc1cc(/C=C/c2cc[n+](C)cc2)ccc1OCC(=O)Nc1ccccc1

["2.74 µM (active)", "2.93 µM (active)"]
